target: human NAMPT (Homo sapiens); test: Human recombinant enzyme assay (NMN fluorescence biochemical assay, activation of NAMPT); conditions: Table A; human recombinant NAMPT, NMN formation, 60 min
# label = bin(measured AC1.4 Human), where bins are low-valued (below 1 µM), mid-valued (1 µM to below 4 µM), high-valued (4 µM or more)

Use these answered entries as a reference point.
COc1ccc(CNC(=O)NC2CC3(C2)CC(C(=O)N2CCCc4ccc(C)cc42)C3)cc1 (stereo not drawn)
low-valued
COc1ccc(CNC(=O)NC2CC3(C2)CC(C(=O)NCC(C)(C)c2ccncc2)C3)cc1 (stereo not drawn)
mid-valued
Cc1ccccc1C(=O)N1CCC(CCCCNC(=O)NCc2ccncc2)CC1
low-valued

Req: Category of CC(C1CC2(CC(NC(=O)NCc3ccc(Cl)cc3)C2)C1)N1CCN(C)C(=O)C1 (stereo not drawn) , please.
Resp: mid-valued

* * *

target: human NAMPT (Homo sapiens, UniProt P43490); test: Human recombinant enzyme assay (NMN fluorescence biochemical assay, activation of NAMPT); conditions: Table A; human recombinant NAMPT, NMN formation, 60 min
Sequence (P43490 whole entry): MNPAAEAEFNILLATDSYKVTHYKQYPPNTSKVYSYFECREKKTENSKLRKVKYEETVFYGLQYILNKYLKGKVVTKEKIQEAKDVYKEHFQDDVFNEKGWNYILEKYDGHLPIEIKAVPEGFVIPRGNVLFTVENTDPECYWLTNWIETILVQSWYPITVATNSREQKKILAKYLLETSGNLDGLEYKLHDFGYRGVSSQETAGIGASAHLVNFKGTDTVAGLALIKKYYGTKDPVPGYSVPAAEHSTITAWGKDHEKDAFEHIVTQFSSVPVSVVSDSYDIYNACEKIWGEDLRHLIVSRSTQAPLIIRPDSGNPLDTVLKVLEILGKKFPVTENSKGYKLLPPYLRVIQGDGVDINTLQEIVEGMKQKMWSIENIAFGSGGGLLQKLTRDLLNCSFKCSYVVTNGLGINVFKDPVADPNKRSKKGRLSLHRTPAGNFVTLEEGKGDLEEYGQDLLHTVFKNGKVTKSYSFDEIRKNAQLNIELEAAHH
Reported AC1.4 Human values for the following compounds.
State the answer as a number, implicitly in µM.

Study these solved cases before continuing.
CN(C(=O)[C@H]1C[C@@]2(C[C@H](NC(=O)NCc3ccc(Cl)cc3)C2)C1)C1CCOC1 (stereo partly shown)
0.9
Cc1cccc(CN(C)C(=O)CCCCCNC(=O)NCc2ccc(Cl)cc2)c1
2.0
COc1ccc(CNC(=O)NC2CC3(CC(Cc4ccc(C)cc4)C3)C2)cc1 (stereo not shown)
2.3

Now look at this entry.
Req: Hi! What's the reported AC1.4 Human for COc1ccc(CNC(=O)NCCCCCC(=O)N(C)c2ccccc2F)cc1 on human NAMPT (Homo sapiens, UniProt P43490)?
Resp: 0.1

* * *

biological target: UniProt P43490; test: Human recombinant enzyme assay (NMN fluorescence biochemical assay, activation of NAMPT); details: Table A; human recombinant NAMPT, NMN formation, 60 min; read-out: EC50 Human
So basically: is EC50 under 30 µM? Then MET. Not under? Then NOT MET.

COc1ccc(CNC(=O)NC2CC3(C2)CC(C(=O)N2CCN(C4COC4)CC2)C3)cc1 (centres unmarked) [Compound 111]
MET
O=C(NCc1ccc(Cl)cc1)NC1CC2(C1)CC(NC(=O)c1ccccc1)C2 (centres unmarked) [Compound 114]
NOT MET

Req: EC50 under 30 µM? Item: O=C(CCCCCNC(=O)NCc1ccc(Cl)cc1)Nc1cccc(F)c1 [Compound 285]
Resp: MET

Req: EC50 under 30 µM? Item: COc1ccc(CNC(=O)NC2CC3(C2)CC(C(=O)N(C)Cc2ccccc2)C3)cc1 (centres unmarked) [Compound 51]
Resp: NOT MET

Req: EC50 under 30 µM? Item: Cc1cccc(N2CC[C@]3(C2)C[C@@H](NC(=O)NCc2ccc(Cl)cc2)C3)n1 [Compound 183]
Resp: NOT MET

Req: EC50 under 30 µM? Item: Cc1ccc(C(=O)N2CCC(CCCCNC(=O)NCc3ccc(Cl)cc3)CC2)cn1 [Compound 309]
Resp: MET

Req: EC50 under 30 µM? Item: Cc1ccc(C(=O)N(C)CC2CC3(C2)CC(NC(=O)NCc2ccc(Cl)cc2)C3)cn1 (centres unmarked) [Compound 248]
Resp: MET

Req: EC50 under 30 µM? Item: COc1ccc(CNC(=O)NC2CC3(C2)CC(C(=O)N(C)C2CCOC2)C3)cc1 (stereo in doubt) [Compound 79]
Resp: NOT MET
